tested on: Beta-lactamase (Proteus vulgaris); assay: Hydrolysis rate by the beta-lactamase from Proteus vulgaris 31 relative to cephaloridine.
Measured metric: Relative hydrolysis rate

Cn1nnnc1SCC1=C(C(=O)O)N2C(=O)C(NC(=O)Cc3csc(N)n3)C2SC1 (stereo unspecified) = 250

(A) Cn1nnnc1SCC1=C(C(=O)O)N2C(=O)C(NC(=O)C(C(=O)O)c3ccc(O)cc3)C2OC1 (stereo unspecified)
(B) Cn1nnnc1SCC1=C(C(=O)O)N2C(=O)C(NC(=O)C(C(=O)O)c3ccc(O)cc3)C2SC1 (stereo unspecified)
(C) CC1=C(C(=O)O)N2C(=O)C(NC(=O)CSC(F)(F)F)C2OC1 (stereo unspecified)
(D) CC1=C(C(=O)O)N2C(=O)C(NC(=O)CSC(F)(F)F)C2SC1 (stereo unspecified)
(E) Cc1nnc(SCC2=C(C(=O)O)N3C(=O)C(NC(=O)Cn4cnnn4)C3OC2)s1 (stereo unspecified)
Enquiry: Could you please order the items by Relative hydrolysis rate, going from the lowest number to the highest? Show the ranking through the labels, in the order asked for.
Return: B, A, D, C, E
(B: 20, A: 86, D: 160, C: 500, E: 1200)

----------
test system: Escherichia coli; test: Inhibitory concentration of compound was tested against gram negative Escherichia coli 73.; type: functional
Measured metric: MIC

Solved cases below.
Cn1nnnc1SCC1=C(C(=O)O)N2C(=O)C(NC(=O)C(C(=O)O)c3ccc(O)cc3)C2OC1 (stereo not drawn) = 50 µg/mL
Cn1nnnc1SCC1=C(C(=O)O)N2C(=O)C(NC(=O)C(C(=O)O)c3ccc(O)cc3)C2SC1 (stereo not drawn) = 50 µg/mL
Cn1nnnc1SCC1=C(C(=O)O)N2C(=O)C(NC(=O)Cc3ccc(O)cc3)C2OC1 (stereo not drawn) = > 100 µg/mL
Cn1nnnc1SCC1=C(C(=O)O)N2C(=O)C(NC(=O)/C(=N\O)c3ccc(NS(C)(=O)=O)cc3)C2OC1 (stereo not drawn) = > 100 µg/mL
Cc1nnc(SCC2=C(C(=O)O)N3C(=O)C(NC(=O)Cn4cnnn4)C3OC2)s1 (stereo not drawn) = > 100 µg/mL

Enquiry: Could you share which MIC value was measured for CC1=C(C(=O)O)N2C(=O)C(NC(=O)CSC(F)(F)F)C2SC1 (stereo not drawn) ?
Return: > 100 µg/mL

Enquiry: Could you share which MIC value was measured for Cc1nnc(SCC2=C(C(=O)O)N3C(=O)C(NC(=O)Cn4cnnn4)C3SC2)s1 (stereo not drawn) ?
Return: 25 µg/mL

Enquiry: Could you share which MIC value was measured for Cn1nnnc1SCC1=C(C(=O)O)N2C(=O)C(NC(=O)C(O)c3ccccc3)C2OC1 (stereo not drawn) ?
Return: > 100 µg/mL

----------
tested on: Escherichia coli; experiment: Inhibitory concentration of compound was tested against gram negative Escherichia coli 73.; format: functional
Measured metric: MIC (µg/mL)

Solved cases below.
CCN1CCN(C(=O)NC(C(=O)NC2C(=O)N3C(C(=O)O)=C(CSc4nnnn4C)CSC23)c2ccc(OC(N)=O)cc2)C(=O)C1=O (stereo not drawn) = 12.5
Cn1nnnc1SCC1=C(C(=O)O)N2C(=O)C(NC(=O)Cc3csc(N)n3)C2SC1 (stereo not drawn) = 1.56
CCN1CCN(C(=O)NC(C(=O)NC2C(=O)N3C(C(=O)O)=C(CSc4nnnn4C)COC23)c2ccc(OC(N)=O)cc2)C(=O)C1=O (stereo not drawn) = 12.5
Cn1nnnc1SCC1=C(C(=O)O)N2C(=O)C(NC(=O)C(O)c3ccccc3)C2SC1 (stereo not drawn) = 25

(P) CC1=C(C(=O)O)N2C(=O)C(NC(=O)CSC(F)(F)F)C2OC1 (stereo not drawn)
(Q) Cn1nnnc1SCC1=C(C(=O)O)N2C(=O)C(NC(=O)Cc3ccc(O)cc3)C2SC1 (stereo not drawn)
(R) Cn1nnnc1SCC1=C(C(=O)O)N2C(=O)C(NC(=O)/C(=N\O)c3ccc(NS(C)(=O)=O)cc3)C2SC1 (stereo not drawn)
Enquiry: Could you please order the items by MIC, going from the lowest number to the highest? Show the ranking through the labels, in the order asked for.
Return: Q, R, P
